# test: Half life in human liver microsomes in presence of NADPH by LC-MS/MS analysis
# Format: ADME, Microsome
Form field: t1/2 (one value per entry).

COc1ccc(S(=O)(=O)N(CC(=O)O)c2ncc(N(CC(F)(F)F)S(=O)(=O)c3ccc(F)cc3)c3ccccc23)cc1 = > 3 h

### Prompt Read off the recorded t1/2 for O=C(O)CN(c1ncc(N(CC(F)(F)F)S(=O)(=O)c2ccc(F)cc2)c2ccccc12)S(=O)(=O)c1ccc(F)cc1
### Response > 3 h

### Prompt Read off the recorded t1/2 for COc1ccc(S(=O)(=O)N(CC(F)(F)F)c2cnc(N(CC(=O)O)S(=O)(=O)c3ccc(F)cc3)c3ccccc23)cc1
### Response > 3 h

Hey, just so you know, these numbers are from ChEMBL document CHEMBL4602608.
